Where do these numbers come from? They come from ChEMBL document CHEMBL1201862.

# Tested on: NCI-H23
# testProtocol: NCI tumour cell line growth inhibition, 48 h
Active and inactive are the calls of the source. Cut-off read from the data, not from the text of the source: active = GI50 up to about 1.1 µM and inactive = higher.
Valid outcomes are listed here; reply with one: active, inactive

Exercise: Please indicate how the test categorized O=c1c2c([N+](=O)[O-])cccc2nc2[nH]c3ccccc3n12 .
Solution: inactive

Exercise: Please indicate how the test categorized COc1cc(C2c3cccc4cccc(c34)C3CCC(=O)N32)cc(O)c1O (stereo unspecified) .
Solution: inactive

Exercise: Please indicate how the test categorized COC(=O)C[C@](O)(CCC(C)(C)O)C(=O)O[C@@H]1C(OC)=C[C@]23CCCN2CCc2cc4c(cc2[C@H]13)OCO4 .
Solution: active

Exercise: Please indicate how the test categorized Clc1cc2ncn(C3CCCO3)c2cc1Cl (stereo unspecified) .
Solution: inactive

Exercise: Please indicate how the test categorized NC(=O)Cc1ncn(-c2ccccc2)n1 .
Solution: inactive

Exercise: Please indicate how the test categorized CCCCC1NC=Nc2c1ccc1c2[nH]c2ccccc21 (stereo unspecified) .
Solution: inactive

Exercise: Please indicate how the test categorized CCCCN1C(=O)NC(Cc2ccccc2)C1=O (stereo unspecified) .
Solution: inactive

Exercise: Please indicate how the test categorized CC(=O)OCC1OC(n2c(-c3ccc(C)cc3)cc(-c3ccccc3)c(C#N)c2=O)C(OC(C)=O)C(OC(C)=O)C1OC(C)=O (stereo unspecified) .
Solution: inactive

Exercise: Please indicate how the test categorized O=CN(O)CC(=O)O .
Solution: inactive

Exercise: Please indicate how the test categorized C/C(=N\NC(=O)CC(=O)Nc1ccc(C)cc1)c1cc2ccccc2oc1=O .
Solution: inactive

Exercise: Please indicate how the test categorized Cc1cc(N(CCC#N)CCC#N)ccc1CC1N=C(c2ccccc2)OC1=O (stereo unspecified) .
Solution: inactive

###

# System: NCI-H23
# testProtocol: NCI tumour cell line growth inhibition, 48 h
Calls of active or inactive are those of the source. Rule as the data show it: active = GI50 up to about 1.1 µM and inactive = higher.
measuredProperty: GI50

Exercise: GET /values?readout=GI50&system=NCI-H23&item= N=C(CC(=O)Nc1ccc(Cl)cc1)Nc1ccccc1
Solution: > 100 µM (inactive)

Exercise: GET /values?readout=GI50&system=NCI-H23&item= CCCCCCNCCc1c[nH]cn1
Solution: > 100 µM (inactive)

Exercise: GET /values?readout=GI50&system=NCI-H23&item= Cc1ccc(N(C(=O)Nc2ccccc2)C2=NCC(C)S2)cc1C (stereo unspecified)
Solution: 15.7 µM (inactive)

Exercise: GET /values?readout=GI50&system=NCI-H23&item= CC(=O)OCc1ccc2oc(=O)c(C(=O)Oc3ccccc3)cc2c1
Solution: 32.6 µM (inactive)

Exercise: GET /values?readout=GI50&system=NCI-H23&item= CSC(C1c2ccccc2N(C)C2=NC(=O)N(C)C(=O)C21Cl)S(=O)(=O)c1ccc(C)cc1 (stereo unspecified)
Solution: 27 µM (inactive)

Exercise: GET /values?readout=GI50&system=NCI-H23&item= O/N=C1\SC(=N\O)/C(=N/O)S\C1=N/O
Solution: 76.6 µM (inactive)

Exercise: GET /values?readout=GI50&system=NCI-H23&item= CC1(C)OC(COP2OCCO2)[C@H](COP2OCCO2)O1 (stereo partly specified)
Solution: > 100 µM (inactive)

Exercise: GET /values?readout=GI50&system=NCI-H23&item= CCCCCCCCCCCc1nnc(N)o1
Solution: > 100 µM (inactive)

Exercise: GET /values?readout=GI50&system=NCI-H23&item= N#CCCN(C1=NN(C(=O)CC(=O)Nc2ccc(Cl)cc2)C(c2ccccc2)C1)c1ccc(Cl)cc1 (stereo unspecified)
Solution: > 100 µM (inactive)

Exercise: GET /values?readout=GI50&system=NCI-H23&item= COP(=O)(OC)C(=O)N1N(c2ccc([N+](=O)[O-])cc2)C(=O)C(C)NC1(NNc1ccc([N+](=O)[O-])cc1)P(=O)(OC)OC (stereo unspecified)
Solution: > 100 µM (inactive)

Exercise: GET /values?readout=GI50&system=NCI-H23&item= CC1C(=O)O[C@H]2C1CC[C@@]1(C)[C@H](O)CC[C@@]13C[C@]2(O)OO3 (stereo partly specified)
Solution: > 100 µM (inactive)

###

# Test system: U-251
# testProtocol: NCI tumour cell line growth inhibition, 48 h
Calls of active or inactive are those of the source. No stated cut-off is given here; in the data, active = GI50 up to about 1.1 µM and inactive = higher.
Valid outcomes are listed here; reply with one: TRUE for active, FALSE for inactive

Exercise: Please indicate how the test categorized COc1cc(S(=O)(=O)Nc2nc(-c3ccc(N4C(=O)C(CC(=O)O)SC4c4cccs4)cc3)cs2)ccc1Cl (stereo not drawn) .
Solution: FALSE

Exercise: Please indicate how the test categorized COC(=O)CCC(=O)C(CC(=O)OC)C(=O)CCC(=O)NCCc1ccccc1 (stereo not drawn) .
Solution: FALSE

Exercise: Please indicate how the test categorized CCc1c(CN)c(CC)c(CNC2=NCCN2)c(CC)c1CNC1=NCCN1 .
Solution: FALSE

Exercise: Please indicate how the test categorized COc1cc2c(c(OC)c1OC)C(=O)[C@@H]1[C@H]2N1C(N)=O .
Solution: FALSE

Exercise: Please indicate how the test categorized CN(CCS(=O)(=O)N1C(=O)C2CCCN2C(=O)[C@@H]1Cc1ccccc1)C(=O)OCc1ccccc1 (stereo partly drawn) .
Solution: FALSE

Exercise: Please indicate how the test categorized CCOC(=O)N1CCC2(CC1)C[C@@](C(C)=O)(c1ccccc1)C(C)O2 (stereo partly drawn) .
Solution: FALSE

Exercise: Please indicate how the test categorized Cc1nc(O)c2ncn(CCO)c2n1 .
Solution: FALSE

Exercise: Please indicate how the test categorized CCOc1cc2c(cc1O)CC[C@@H]1[C@@H]2CC[C@]2(C)[C@@H](O)CC[C@@H]12 .
Solution: TRUE

###

Give GI50 for every item shown.
# System: MDA-N
# testProtocol: NCI tumour cell line growth inhibition, 48 h
Calls of active or inactive are those of the source. Cut-off read from the data, not from the text of the source: active = GI50 up to about 1.1 µM and inactive = higher.

Exercise: GET /values?readout=GI50&system=MDA-N&item= COc1ccc(-c2coc3c4c(ccc3c2=O)OCO4)cc1OC
Solution: 5.79 µM (inactive)

Exercise: GET /values?readout=GI50&system=MDA-N&item= O/N=C1\SC(=N\O)/C(=N/O)S\C1=N/O
Solution: 73.8 µM (inactive)

Exercise: GET /values?readout=GI50&system=MDA-N&item= O=C(O)/C=C(/CC(=O)O)C(=O)O
Solution: 22.1 µM (inactive)

Exercise: GET /values?readout=GI50&system=MDA-N&item= COc1c(CC=C(C)C)c(O)c(C(CC(C)C)c2c(O)c(C(C)=O)c(O)c3c2OC(C(C)(C)O)C3)c(O)c1C(C)=O (stereo not given) [ACROFOLIONE A]
Solution: 4.29 µM (inactive)

Exercise: GET /values?readout=GI50&system=MDA-N&item= CCCCNC(=O)c1cc2c(cc1Cl)Sc1nccn1S2(=O)=O
Solution: 61.4 µM (inactive)

###

# System: T47D
# testProtocol: NCI tumour cell line growth inhibition, 48 h
The source made the active and inactive calls. Rule as the data show it: active = GI50 up to about 1.1 µM and inactive = higher.
Valid outcomes are listed here; reply with one: active, inactive

Exercise: Please indicate how the test categorized COC(=O)C1CCC(=O)N1C(c1ccc2c(c1)OCO2)c1ccc2c(c1)OCO2 (stereo not drawn) .
Solution: inactive

Exercise: Please indicate how the test categorized O=C1C/C(=C\O)C(=O)c2ccccc2N1 .
Solution: inactive

Exercise: Please indicate how the test categorized NC(=O)Nc1n[nH]c(-c2ccccc2)n1 .
Solution: inactive

Exercise: Please indicate how the test categorized CCN(CC)CCC(=O)c1ccc(Oc2ccc(F)cc2)cc1 .
Solution: inactive

Exercise: Please indicate how the test categorized CO/C(N)=C(C#N)/N=C/c1ccsc1 .
Solution: inactive

Exercise: Please indicate how the test categorized Cc1ccc(N(C(=O)Nc2ccccc2)C2=NCC(C)S2)cc1C (stereo not drawn) .
Solution: inactive

Exercise: Please indicate how the test categorized CC(=O)OCC1OC(n2cnc3nc(Br)[nH]c(=O)c32)C(OC(C)=O)C1OC(C)=O (stereo not drawn) .
Solution: inactive

Exercise: Please indicate how the test categorized CCC(C)C1=C(O)[N+]2([O-])Oc3ccc(-c4c(O)c(O)c(-c5ccc(OC(C)=O)cc5)c(OC(C)=O)c4OC(C)=O)cc3OC2(C(C)CC)C(=O)N1O (stereo not drawn) .
Solution: inactive

Exercise: Please indicate how the test categorized O=C1NC(=S)N/C1=C\c1cc2c(=O)c3ccccc3sc2s1 .
Solution: inactive

Exercise: Please indicate how the test categorized COC1=CC2(CC(OC)=C1OC)OC21COc2ccccc2C1=O (stereo not drawn) .
Solution: inactive

Exercise: Please indicate how the test categorized C=C(Cl)C(Cl)(CCl)CCC(Br)C(C)(C)Br (stereo not drawn) .
Solution: inactive

Exercise: Please indicate how the test categorized CCCCCCNCCc1c[nH]cn1 .
Solution: inactive

Exercise: Please indicate how the test categorized NCCN1C(=O)c2ccccc2C1(O)c1ccc(Cl)cc1 (stereo not drawn) .
Solution: inactive

Exercise: Please indicate how the test categorized C/C(=N\NC(=S)N1CCCCCC1)c1cccc2cccnc12 .
Solution: active

Exercise: Please indicate how the test categorized Cc1onc(-c2c(F)cccc2Cl)c1C(=O)N[C@@H]1C(=O)N2[C@@H]1SC(C)(C)[C@@H]2C(=O)O .
Solution: inactive

Exercise: Please indicate how the test categorized CC1(C)CCCC2CC2CCC(C)(C)C1=O (stereo not drawn) .
Solution: inactive

Exercise: Please indicate how the test categorized COc1ccc2[nH]c3c([N+](=O)[O-])ccc(Cl)c3c(=O)c2c1 .
Solution: inactive

Exercise: Please indicate how the test categorized O=C1c2c[nH]nc2C(c2ccccc2)N1c1ccccc1 (stereo not drawn) .
Solution: inactive

Exercise: Please indicate how the test categorized COc1ccc(-c2nc(N(C)C)c3ccccc3n2)cc1 .
Solution: inactive

Exercise: Please indicate how the test categorized CC(=O)OCC1OC(Sc2nc(-c3ccccc3)c(C#N)c(=O)n2C2OC(COC(C)=O)C(OC(C)=O)C(OC(C)=O)C2OC(C)=O)C(OC(C)=O)C(OC(C)=O)C1OC(C)=O (stereo not drawn) .
Solution: inactive

Exercise: Please indicate how the test categorized CCN1C(=O)C(=C/C=C/c2ccc(N(CC)CC)cc2)C(=O)N(CC)C1=S .
Solution: inactive

Exercise: Please indicate how the test categorized COc1ccc(CCNC(=O)Cc2cc(OC)c(OC)cc2CO)cc1OC .
Solution: inactive

Exercise: Please indicate how the test categorized CCCCNC(=O)c1cc2c(cc1Cl)Sc1nccn1S2(=O)=O .
Solution: inactive
